src = PubChem BioAssay AID1159580

Below, each entry is listed alongside its reported normalized growth.
Experiment: chemical genetic growth profiling, strain panel (AID 1159580);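 note: tested at 20 µM; growth read once vehicle control cultures reached saturation at 30 °C; 1 = growth at the plate median or of vehicle wells; lower values mean less growth of the strain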
Settings: S. cerevisiae deletion strains, growth OD, locus YGL078C, strain dbp3, active compounds read low
Hit rate of the full screen: of about 5,500 compounds, about 2,000 (36%) were called active. Inconclusive results (about 18%) are left out. Some of the results follow.
EXPERIMENTAL ENDPOINT: normalized growth

O=C1C=CC(=C(c2ccc(O)cc2)c2ccc(O)cc2)C=C1    0.994
CCOC(=O)CCC(=O)O[C@H]1[C@H](O[C@@H]2[C@@H](C)[C@H](O[C@H]3C[C@@](C)(OC)[C@@H](O)[C@H](C)O3)[C@@H](C)C(=O)O[C@H](CC)[C@@](C)(O)[C@H](O)[C@@H](C)C(=O)[C@H](C)C[C@@]2(C)O)O[C@H](C)C[C@@H]1N(C)C    0.994
COc1ccc2c(c1)O[C@@H]1COc3cc(OC)c(OC)cc3[C@@H]1C2=O    0.933
CCC(C)C(OC(C)=O)C(=O)OC1C(O)C2C3(C)C=CC(=O)C(C)(C)C3CC(OC(=O)C(O)C(C)C)C2(C)C23OC2CC(c2ccoc2)C13C (stereo unspecified)    1
CC[C@H]1OC(=O)[C@H](C)[C@@H](O[C@H]2C[C@@](C)(OC)[C@@H](O)[C@H](C)O2)[C@H](C)[C@@H](O[C@@H]2O[C@H](C)C[C@H](N(C)C)[C@H]2O)[C@](C)(O)C[C@@H](C)CN(C)[C@H](C)[C@@H](O)[C@]1(C)O    0.979
CC(C[N+](C)(C)C)OC(N)=O (stereo unspecified)    0.982
COc1ccc2c(c1OC)C(=O)O[C@H]2[C@H]1c2cc3c(cc2CCN1C)OCO3    1.01
COc1cc2c(cc1OC)[C@@H]1C(=O)c3ccc(O)c(CC=C(C)C)c3O[C@@H]1CO2    1.02
C=C(C)C1CNC(C(=O)O)C1CC(=O)O (stereo unspecified)    1.02
CCC(=O)O[C@H]1[C@H](O[C@@H]2[C@@H](C)[C@H](O[C@H]3C[C@@](C)(OC)[C@@H](O)[C@H](C)O3)[C@@H](C)C(=O)O[C@H](CC)[C@@](C)(O)[C@H](O)[C@@H](C)C(=O)[C@H](C)C[C@@]2(C)O)O[C@H](C)C[C@@H]1N(C)C    0.995
COc1cc2c(cc1OC)[C@@H]1C(=O)c3ccc(OC)c(CC=C(C)C)c3O[C@@H]1CO2    1.01
COc1cc2c(cc1OC)C1C(=O)c3ccc4c(c3OC1CO2)CCC(C)(C)O4 (stereo unspecified)    1.03
CC(=O)OCC[N+](C)(C)C    1.03
CC1(C)OC(=O)NC1=O    0.975
COc1ccc2c(c1OC)C(=O)O[C@@H]2[C@H]1c2cc3c(cc2CCN1C)OCO3    1.03
COc1cc2c(cc1OC)C1C(=O)c3c(cc4c(c3O)C=CC(C)(C)O4)OC1CO2 (stereo unspecified)    1.01
